method: in vivo
condition: dog, plasma, po, 1 mg/kg
parameter measured: Tmax

Measured Tmax of "CN1CCC[C@@H]1CCO[C@](C)(c1ccccc1)c1ccc(Cl)cc1" : ~10 min

====

method: in vivo
condition: horse, plasma, po, 0.1 mg/kg
parameter measured: half-life (h)
Number only, in h; omit the unit.

Measured half-life of "CN1CCC[C@@H]1CCO[C@](C)(c1ccccc1)c1ccc(Cl)cc1" : 2.8

The origin of these recorded values is patent US8940271B2.
